system: primary hippocampus neurons; test: Cell viability analysis (MTT assay); format: cell-based, mouse (C57BL/6J); details: Mus musculus, Neuron; primary hippocampus neurons treated on day 9, viability after 48 hours; read-out: IC50 dose, cell viability
pIC50: −log10 of the molar value.
recorded-metric: pIC50

Enquiry: Form: Entry = Nc1ccccc1NC(=O)c1ccc(CNc2nccc(-c3cccnc3)n2)cc1 | System = primary hippocampus neurons | pIC50 = ____
Return: ~5.15

The reported measurements were obtained from patent US20180228801A1.
